System: THRa:RXRa (NR concentration 90 nM, RXRa partner concentration 90 nM)
assay.method.text: PBM binding z-score (relative to random genomic background probes); higher = stronger binding; sequences stand for … in GC…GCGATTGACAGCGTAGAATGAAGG
property.measured: PBM binding z-score

{"seq": "GCTAGTTGGTAAGTAAAAGGTCACACACCGGTCG", "numeric.result": 3.48}
{"seq": "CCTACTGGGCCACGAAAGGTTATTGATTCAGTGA", "numeric.result": 1.66}
{"seq": "AATACAGGATCATCGTAGGCCAGAGTACGCACAG", "numeric.result": 1.59}
{"seq": "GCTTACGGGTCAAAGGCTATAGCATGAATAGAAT", "numeric.result": 2.45}

----------
Tested on: VDR homodimer (NR concentration 270 nM)
assay.method.text: PBM binding z-score (relative to random genomic background probes); higher = stronger binding; sequences stand for … in GC…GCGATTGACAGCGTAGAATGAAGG
Parameter: PBM binding z-score. Scope: all listed entries.
property.measured: PBM binding z-score

{"seq": "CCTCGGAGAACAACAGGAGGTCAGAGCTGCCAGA", "numeric.result": 0.996}
{"seq": "ACTAGCAGGCTAAGGGTCACTCAAGATTAGTCCG", "numeric.result": 1.01}
{"seq": "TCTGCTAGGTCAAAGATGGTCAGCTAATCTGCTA", "numeric.result": -0.234}
{"seq": "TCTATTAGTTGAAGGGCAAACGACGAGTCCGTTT", "numeric.result": 1.91}
{"seq": "GGAACAAGGGCATTCGAGTTGATAGCATGGCGAT", "numeric.result": 2.39}
{"seq": "CCTACTGGGCCAAACAGGTCATTGATGCCGATAA", "numeric.result": 1.53}

----------
System: FXR:RXRa (NR concentration 270 nM, RXRa partner concentration 90 nM)
assay.method.text: PBM binding z-score (relative to random genomic background probes); higher = stronger binding; sequences stand for … in GC…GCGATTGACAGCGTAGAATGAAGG
property.measured: PBM binding z-score

{"seq": "TCACATAGGTAAAGGTGAAAGTCGAACGATATGA", "result": 1.25}
{"seq": "CCGAGTAGGTTACGGGGCATTCAGGCAACGGTGA", "result": 0.382}
{"seq": "AGTCAAAGTTCATCTATGTAACGTAAGATATGCT", "result": 6.5}
{"seq": "TCTTGTAGATCAATAGCGGTTAAGAAAGTGCGCT", "result": 0.25}
{"seq": "CCTTACGGGTCACGAGGTTCTAGCACGACGAGCG", "result": 6.53}
{"seq": "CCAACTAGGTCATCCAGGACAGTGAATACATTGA", "result": 3.96}
{"seq": "TCATATAGGTAAAGGTGAAAATCGAACGATATGA", "result": 1.01}
{"seq": "CAGCCTAGGTCAGGGCCTGTATAGGAGGAACGTT", "result": 1.48}
{"seq": "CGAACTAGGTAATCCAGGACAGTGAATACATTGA", "result": -0.0818}
{"seq": "CCTTACTGGTCACTCCAGGTTATAGCATCGGAGT", "result": 0.959}
{"seq": "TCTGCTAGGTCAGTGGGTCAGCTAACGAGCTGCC", "result": 1.49}
{"seq": "CCTCGGACGACAGAAGGTCAGAGCTGTCCGCTTT", "result": 1.1}
{"seq": "CCTTACGGGTCACTCCAGGTTATAACATCGGAGT", "result": 4.88}
{"seq": "ACTATTAGTTGACTTCGGGCAACCGATACGACGC", "result": 0.0947}
{"seq": "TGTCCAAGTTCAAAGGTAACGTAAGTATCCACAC", "result": 4.56}
{"seq": "CGTCAGAGTTCAAGGTAACGTAACAGAAAGCAGC", "result": 5.49}
{"seq": "ATCGAAAGGTCTACGAGGTGAGTATACACCGTTT", "result": 0.287}

----------
Test system: PPARg homodimer (NR concentration 180 nM)
assay.method.text: PBM binding z-score (relative to random genomic background probes); higher = stronger binding; sequences stand for … in GC…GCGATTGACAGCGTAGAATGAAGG

{"seq": "CAAACTAGGTCAAACGTCAAAGTCGAGCCAACCA", "PBM binding z-score": 2.05}
{"seq": "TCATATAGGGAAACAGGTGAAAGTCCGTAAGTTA", "PBM binding z-score": 1.02}
{"seq": "TCTAGTGGGTCACGGAGGTCACACACGACGGGTA", "PBM binding z-score": 4.58}
{"seq": "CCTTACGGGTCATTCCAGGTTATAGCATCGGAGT", "PBM binding z-score": 1.34}
{"seq": "TCTCGGAGGACACGAAAGGTCAGACCTCGACATC", "PBM binding z-score": 2.48}
{"seq": "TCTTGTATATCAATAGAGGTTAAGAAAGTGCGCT", "PBM binding z-score": 0.383}
{"seq": "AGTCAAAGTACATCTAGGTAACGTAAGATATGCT", "PBM binding z-score": -0.552}
{"seq": "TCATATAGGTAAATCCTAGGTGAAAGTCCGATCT", "PBM binding z-score": -0.358}

----------
Parameter: PBM binding z-score. Scope: all listed entries.
Test system: PPARg DBDmut IVT, anti-PPARg (DBD mutation: PPARg1 K132A/R137A, NR concentration 270 nM)
assay.method.text: PBM binding z-score (relative to random genomic background probes); higher = stronger binding; sequences stand for … in GC…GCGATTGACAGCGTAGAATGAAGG

{"seq": "AGTCATAGTTCAGGACGAGGTAACGTAAAGCACG", "PBM binding z-score": 0.714}
{"seq": "GCAGACAGGTGAAACGCAGGTAAGTCAGGGTGGC", "PBM binding z-score": -0.89}
{"seq": "CAGCCTAGGTCAGCGCCAGTATAGGAGGAACGTT", "PBM binding z-score": -0.469}

----------
System: RARg homodimer (NR concentration 270 nM)
assay.method.text: PBM binding z-score (relative to random genomic background probes); higher = stronger binding; sequences stand for … in GC…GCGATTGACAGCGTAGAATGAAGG
Parameter: PBM binding z-score. Scope: all listed entries.

{"seq": "ATCTCTAGGTAGCAAGTTCAGTGAAAGAGAGGAC", "PBM binding z-score": 0.963}
{"seq": "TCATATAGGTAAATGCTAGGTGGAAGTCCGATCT", "PBM binding z-score": 0.0562}
{"seq": "CTCGAAAGGTCGTGCTCAGGTGAGTGTACCAAAC", "PBM binding z-score": 4.01}
{"seq": "CCTCGCAGGACAACAGGAGGTCAGAGCTGCCAGA", "PBM binding z-score": 2.57}
{"seq": "CCTAGTTGGTCAACGTCACACACGCTATAGGTAC", "PBM binding z-score": 1.18}
{"seq": "CCTTACGGGTCAAGATTATAGCACGGGTGGTACG", "PBM binding z-score": 4.24}
{"seq": "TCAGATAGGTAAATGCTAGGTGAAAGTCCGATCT", "PBM binding z-score": 0.0345}
{"seq": "CCTACTGGCCCAAGGTCATTGATCAGTCAAAGCA", "PBM binding z-score": 2.65}
{"seq": "CCTACTGGGCCAAAAAGGTCATGGATGCCGATAA", "PBM binding z-score": 4.57}
{"seq": "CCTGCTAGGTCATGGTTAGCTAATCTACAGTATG", "PBM binding z-score": 4.34}
{"seq": "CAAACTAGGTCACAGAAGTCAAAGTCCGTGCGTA", "PBM binding z-score": 5.16}
{"seq": "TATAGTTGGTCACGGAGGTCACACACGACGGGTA", "PBM binding z-score": 4.72}
{"seq": "TCATATAGGTAATACTGGTGAAAGTCGGCATCTA", "PBM binding z-score": 0.265}
{"seq": "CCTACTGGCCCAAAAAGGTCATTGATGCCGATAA", "PBM binding z-score": 4.12}
{"seq": "CCTTACGGGTCACTCGAGGTTATAGCATCGGAGT", "PBM binding z-score": 3.78}
{"seq": "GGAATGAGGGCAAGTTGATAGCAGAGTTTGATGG", "PBM binding z-score": 2.21}
{"seq": "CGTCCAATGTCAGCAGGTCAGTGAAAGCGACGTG", "PBM binding z-score": 2.59}
{"seq": "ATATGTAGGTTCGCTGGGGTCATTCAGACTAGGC", "PBM binding z-score": 2.35}
{"seq": "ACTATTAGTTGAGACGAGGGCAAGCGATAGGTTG", "PBM binding z-score": 0.635}
{"seq": "TAGCCTAGGTCATTAGGCCAGTATAGTACGCATC", "PBM binding z-score": 3.8}
{"seq": "ACTAGTTGGTCGGCTGAGGTCACACACAATTCGG", "PBM binding z-score": 3.25}
{"seq": "TCATATAGGTCAAGGTGAAAGTCGAACGATATGA", "PBM binding z-score": 5.43}
{"seq": "GCTAGTTGGTTAGTAAAAGGTCACACACCGGTCG", "PBM binding z-score": 4.08}
{"seq": "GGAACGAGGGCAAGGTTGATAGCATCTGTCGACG", "PBM binding z-score": 1.88}
{"seq": "CCTATTAGTTGACCATAAGGGCAACTGAAGCTCG", "PBM binding z-score": 1.31}
{"seq": "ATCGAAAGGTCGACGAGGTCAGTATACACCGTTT", "PBM binding z-score": 5.72}
{"seq": "TCTTGTAGATCAGCAGGTTAAGAAAGCTGGCCAA", "PBM binding z-score": -0.355}
{"seq": "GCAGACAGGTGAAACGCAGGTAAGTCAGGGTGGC", "PBM binding z-score": 0.249}
{"seq": "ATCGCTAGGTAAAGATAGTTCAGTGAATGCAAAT", "PBM binding z-score": 0.387}
{"seq": "CTACCAAGGTGAACAAGATCGTTGATTACTATTC", "PBM binding z-score": 0.995}
{"seq": "CAAACTAGGTCTCGAAAGGTCAAAGTCGAATGAC", "PBM binding z-score": 5.18}
{"seq": "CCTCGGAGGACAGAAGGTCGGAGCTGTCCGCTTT", "PBM binding z-score": 0.81}
{"seq": "ATACCAAGGTGATCGTGAGGTCGTCGATACTAAC", "PBM binding z-score": 0.868}
{"seq": "CGTCCAAGGTCAAAGAGGTCAGTGAATGCCGAGT", "PBM binding z-score": 7.62}
{"seq": "TGTCAAAGTTGAAAGGTAACGTAAGTATCCACAC", "PBM binding z-score": 1.4}
{"seq": "ACTAGCAGGCCAATGGTCACTCAAGATTAGTCCG", "PBM binding z-score": 0.545}
{"seq": "GCATATAGGTAGTACAAGGTGAAAGTCCGATTGT", "PBM binding z-score": 0.395}
{"seq": "ATCTCCAGGTAACCAAGTTCAGTGAATGCCGAAC", "PBM binding z-score": 0.86}

Recorded values, source the supplement of paper PMC6555819.
